B1: HHH_rd1_0493 (parent)
chain: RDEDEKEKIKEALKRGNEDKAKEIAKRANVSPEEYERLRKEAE

Variants of: B1
Experiment: folding stability dG (cDNA display proteolysis); higher = more stable
Details: PBS, room temperature

[
  {
    "chain": "RDEDEKEKIKEALKRGNEDKAKEIAKRANVSPEEYERRRKEAE",
    "unit.annotation": "kcal/mol",
    "folding stability dG": 0.571
  },
  {
    "chain": "RDEDEPEKIKEALKRGNEDKAKEIAKRANVSPEEYERLRKEAE",
    "unit.annotation": "kcal/mol",
    "folding stability dG": 1.72
  },
  {
    "chain": "RDEDEKEKIKTALKRGNEDKAKEIAKRANVSPEEYERLRKEAE",
    "unit.annotation": "kcal/mol",
    "folding stability dG": 2.29
  },
  {
    "chain": "RDEDEKEKIKEALKRGNEDKAKEIAKRANVSPEEYEELRKEAE",
    "unit.annotation": "kcal/mol",
    "folding stability dG": 2.4
  },
  {
    "chain": "RDEDEKEKIKEALKRGNEDKAREIAKRANVSPEEYERLRKEAE",
    "unit.annotation": "kcal/mol",
    "folding stability dG": 3.21
  },
  {
    "chain": "RDEDEKEKIKEALKRGNEDKAKEIAKRANNSPEEYERLRKEAE",
    "unit.annotation": "kcal/mol",
    "folding stability dG": 0.389
  },
  {
    "chain": "RDEDEKEKIKEALKRGNEDKAKEICKRANVSPEEYERLRKEAE",
    "unit.annotation": "kcal/mol",
    "folding stability dG": 1.54
  },
  {
    "chain": "RDEDEKEKIKEALKRGNEDKAKEIAKRANVSPECYERLRKEAE",
    "unit.annotation": "kcal/mol",
    "folding stability dG": 1.85
  },
  {
    "chain": "RDEYEKEKIKEALKRGNEDKAKEIAKRANVSPEEYERLRKEAE",
    "unit.annotation": "kcal/mol",
    "folding stability dG": 2.9
  },
  {
    "chain": "RDEDEKEKIKEALKRGNEDKAKEIAKRANVSPEEYERLRKEKE",
    "unit.annotation": "kcal/mol",
    "folding stability dG": 1.03
  },
  {
    "chain": "RDEDEKEKIKEALKRGNEDKAKEIAKRANVSPEEYMRLRKEAE",
    "unit.annotation": "kcal/mol",
    "folding stability dG": 2.24
  },
  {
    "chain": "RDEDEKEKIKEALKRGNEDKAKEIAKRANVSPPEYERLRKEAE",
    "unit.annotation": "kcal/mol",
    "folding stability dG": 1.57
  },
  {
    "chain": "RDEDEKEKGKEALKRGNEDKAKEIAKRANVSPEEYERLRKEAE",
    "unit.annotation": "kcal/mol",
    "folding stability dG": 0.603
  },
  {
    "chain": "RDGDEKEKIKEALKRGNEDKAKEIAKRANVSPEEYERLRKEAE",
    "unit.annotation": "kcal/mol",
    "folding stability dG": 2.88
  },
  {
    "chain": "RDEDHKEKIKEALKRGNEDKAKEIAKRANVSPEEYERLRKEAE",
    "unit.annotation": "kcal/mol",
    "folding stability dG": 3.3
  },
  {
    "chain": "RDEDEKEKIKEALKRGNEDKAKEIAKRANVSPEEYERPRKEAE",
    "unit.annotation": "kcal/mol",
    "folding stability dG": -0.019
  },
  {
    "chain": "RDEDEKEKIKEQLKRGNEDKAKEIAKRANVSPEEYERLRKEAE",
    "unit.annotation": "kcal/mol",
    "folding stability dG": 2.69
  },
  {
    "chain": "RDEDEKEKIKEALKRGNEDKAKEIAKRALVSPEEYERLRKEAE",
    "unit.annotation": "kcal/mol",
    "folding stability dG": 2.22
  },
  {
    "chain": "RDEDEKEKIKEALKRGNEDKAKEIAKRANVSPEEYEPLRKEAE",
    "unit.annotation": "kcal/mol",
    "folding stability dG": -0.529
  },
  {
    "chain": "RDEDEKEKIKEALKRGNEDKAKEIAKRANVSPEEYERLRNEAE",
    "unit.annotation": "kcal/mol",
    "folding stability dG": 2.72
  },
  {
    "chain": "RDEDEKEKKKEALKRGNEDKAKEIAKRANVSPEEYERLRKEAE",
    "unit.annotation": "kcal/mol",
    "folding stability dG": 0.396
  },
  {
    "chain": "RDEDEKEKIKEALKRGNEDKAKEIAKRGNVSPEEYERLRKEAE",
    "unit.annotation": "kcal/mol",
    "folding stability dG": 2.32
  },
  {
    "chain": "RDEDEKEKIKEALKRGNEDKAKEIAKRANVSPEEYERLRWEAE",
    "unit.annotation": "kcal/mol",
    "folding stability dG": 3.23
  },
  {
    "chain": "RDEDEKEKIKEALARGNEDKAKEIAKRANVSPEEYERLRKEAE",
    "unit.annotation": "kcal/mol",
    "folding stability dG": 2.53
  },
  {
    "chain": "RDIDEKEKIKEALKRGNEDKAKEIAKRANVSPEEYERLRKEAE",
    "unit.annotation": "kcal/mol",
    "folding stability dG": 2.75
  },
  {
    "chain": "RDEDEKEKIKEALKRGNEDKAKQIAKRANVSPEEYERLRKEAE",
    "unit.annotation": "kcal/mol",
    "folding stability dG": 2.73
  },
  {
    "chain": "RDEDEKEKIKEALKRGNEDKAKEIAKRANVSPEEHERLRKEAE",
    "unit.annotation": "kcal/mol",
    "folding stability dG": 0.142
  },
  {
    "chain": "RDEDEKEKIKEALKRANEDKAKEIAKRANVSPEEYERLRKEAE",
    "unit.annotation": "kcal/mol",
    "folding stability dG": 1.67
  },
  {
    "chain": "RDEDEKEKIKEALKRCNEDKAKEIAKRANVSPEEYERLRKEAE",
    "unit.annotation": "kcal/mol",
    "folding stability dG": 1.76
  },
  {
    "chain": "RDEDEKEKIKEALKRGNEDKAKEIAKRANVSPEEYERLRKEAR",
    "unit.annotation": "kcal/mol",
    "folding stability dG": 2.72
  },
  {
    "chain": "RDEDEKEKIKEALKRGNEDKAKEIAKRANVSPEEYERERKEAE",
    "unit.annotation": "kcal/mol",
    "folding stability dG": 0.322
  },
  {
    "chain": "RDEDEKEKIKEALKRGNEDKAVEIAKRANVSPEEYERLRKEAE",
    "unit.annotation": "kcal/mol",
    "folding stability dG": 2.44
  },
  {
    "chain": "RDEDEKEKIKEALKRGNEDKAKEIAKRANVSPEEYERLRQEAE",
    "unit.annotation": "kcal/mol",
    "folding stability dG": 3.26
  },
  {
    "chain": "RDEDEKEKIKEALKRGNEDKAKEIAKRRNVSPEEYERLRKEAE",
    "unit.annotation": "kcal/mol",
    "folding stability dG": 1.84
  },
  {
    "chain": "RDEDEKEKIKEALKRGNEDKAKEIAKRANVSPEEYEKLRKEAE",
    "unit.annotation": "kcal/mol",
    "folding stability dG": 2.68
  },
  {
    "chain": "RDEDEKEKIKEALKRGSEDKAKEIAKRANVSPEEYERLRKEAE",
    "unit.annotation": "kcal/mol",
    "folding stability dG": 2.19
  },
  {
    "chain": "RDEDEKEKIKEALKRGNEDKAKEIAKTANVSPEEYERLRKEAE",
    "unit.annotation": "kcal/mol",
    "folding stability dG": 2.51
  },
  {
    "chain": "RDEDEKEKIKRALKRGNEDKAKEIAKRANVSPEEYERLRKEAE",
    "unit.annotation": "kcal/mol",
    "folding stability dG": 2.54
  },
  {
    "chain": "RDEDEKEKIKEALKRGNEDKDKEIAKRANVSPEEYERLRKEAE",
    "unit.annotation": "kcal/mol",
    "folding stability dG": 0.52
  },
  {
    "chain": "RDEDEKEKIKEALKRGREDKAKEIAKRANVSPEEYERLRKEAE",
    "unit.annotation": "kcal/mol",
    "folding stability dG": 2.68
  },
  {
    "chain": "RDEDEKEKIKEACKRGNEDKAKEIAKRANVSPEEYERLRKEAE",
    "unit.annotation": "kcal/mol",
    "folding stability dG": 1.37
  },
  {
    "chain": "RDEDEKEKIKEALKRGNEDKAKEIAKRANVSPEEYERQRKEAE",
    "unit.annotation": "kcal/mol",
    "folding stability dG": 0.492
  },
  {
    "chain": "RDEDEKEKIKEALKRGNEDKAKEIAKRANVSPEEYERLRKKAE",
    "unit.annotation": "kcal/mol",
    "folding stability dG": 1.99
  },
  {
    "chain": "RDEDEKEKIKEYLKRGNEDKAKEIAKRANVSPEEYERLRKEAE",
    "unit.annotation": "kcal/mol",
    "folding stability dG": 2.88
  },
  {
    "chain": "RDEDEKEKIKEALKRGWEDKAKEIAKRANVSPEEYERLRKEAE",
    "unit.annotation": "kcal/mol",
    "folding stability dG": 3.09
  },
  {
    "chain": "RDEDEKEKIKEALKRGNEDKAKEIAKRANVQPEEYERLRKEAE",
    "unit.annotation": "kcal/mol",
    "folding stability dG": 2.19
  }
]
